Give IC50 for every item shown.
# target-under-test: farnesyl protein transferase (Homo sapiens, UniProt P49354+P49356)
# procedure-text: In vitro assay for inhibition of farnesyl protein transferase
# Format: biochemical
# assay-context: negative log value of the IC50-value; IC50 = concentration needed to reduce the product of the enzymatic reaction to 50% of the control; read-out: Enzyme activity pIC50 (converted)

List IC50 for every entry below, keeping the order given.
1. COC(c1ccc(Cl)cc1)(c1cc2c3c(c1)c(-c1cccc(Cl)c1)cc(=O)n3CCC2)c1nncn1C (stereo not drawn)
2. Cn1cnnc1C(O)(c1ccc(Br)cc1)c1cc2c3c(c1)c(-c1cccc(Br)c1)cc(=O)n3CC2 (stereo not drawn)
3. Cn1cnnc1C(O)(c1ccc(Cl)cc1)c1cc2c3c(c1)c(-c1ccc(Cl)cc1)cc(=O)n3CC2 (stereo not drawn)

1: < 100 nM; 2: 5.86 nM; 3: < 100 nM
